# EXPERIMENTAL SYSTEM: Histone acetyltransferase p300 (Homo sapiens, UniProt Q09472)
# Sequence (Q09472 whole entry, the tested form may be a part): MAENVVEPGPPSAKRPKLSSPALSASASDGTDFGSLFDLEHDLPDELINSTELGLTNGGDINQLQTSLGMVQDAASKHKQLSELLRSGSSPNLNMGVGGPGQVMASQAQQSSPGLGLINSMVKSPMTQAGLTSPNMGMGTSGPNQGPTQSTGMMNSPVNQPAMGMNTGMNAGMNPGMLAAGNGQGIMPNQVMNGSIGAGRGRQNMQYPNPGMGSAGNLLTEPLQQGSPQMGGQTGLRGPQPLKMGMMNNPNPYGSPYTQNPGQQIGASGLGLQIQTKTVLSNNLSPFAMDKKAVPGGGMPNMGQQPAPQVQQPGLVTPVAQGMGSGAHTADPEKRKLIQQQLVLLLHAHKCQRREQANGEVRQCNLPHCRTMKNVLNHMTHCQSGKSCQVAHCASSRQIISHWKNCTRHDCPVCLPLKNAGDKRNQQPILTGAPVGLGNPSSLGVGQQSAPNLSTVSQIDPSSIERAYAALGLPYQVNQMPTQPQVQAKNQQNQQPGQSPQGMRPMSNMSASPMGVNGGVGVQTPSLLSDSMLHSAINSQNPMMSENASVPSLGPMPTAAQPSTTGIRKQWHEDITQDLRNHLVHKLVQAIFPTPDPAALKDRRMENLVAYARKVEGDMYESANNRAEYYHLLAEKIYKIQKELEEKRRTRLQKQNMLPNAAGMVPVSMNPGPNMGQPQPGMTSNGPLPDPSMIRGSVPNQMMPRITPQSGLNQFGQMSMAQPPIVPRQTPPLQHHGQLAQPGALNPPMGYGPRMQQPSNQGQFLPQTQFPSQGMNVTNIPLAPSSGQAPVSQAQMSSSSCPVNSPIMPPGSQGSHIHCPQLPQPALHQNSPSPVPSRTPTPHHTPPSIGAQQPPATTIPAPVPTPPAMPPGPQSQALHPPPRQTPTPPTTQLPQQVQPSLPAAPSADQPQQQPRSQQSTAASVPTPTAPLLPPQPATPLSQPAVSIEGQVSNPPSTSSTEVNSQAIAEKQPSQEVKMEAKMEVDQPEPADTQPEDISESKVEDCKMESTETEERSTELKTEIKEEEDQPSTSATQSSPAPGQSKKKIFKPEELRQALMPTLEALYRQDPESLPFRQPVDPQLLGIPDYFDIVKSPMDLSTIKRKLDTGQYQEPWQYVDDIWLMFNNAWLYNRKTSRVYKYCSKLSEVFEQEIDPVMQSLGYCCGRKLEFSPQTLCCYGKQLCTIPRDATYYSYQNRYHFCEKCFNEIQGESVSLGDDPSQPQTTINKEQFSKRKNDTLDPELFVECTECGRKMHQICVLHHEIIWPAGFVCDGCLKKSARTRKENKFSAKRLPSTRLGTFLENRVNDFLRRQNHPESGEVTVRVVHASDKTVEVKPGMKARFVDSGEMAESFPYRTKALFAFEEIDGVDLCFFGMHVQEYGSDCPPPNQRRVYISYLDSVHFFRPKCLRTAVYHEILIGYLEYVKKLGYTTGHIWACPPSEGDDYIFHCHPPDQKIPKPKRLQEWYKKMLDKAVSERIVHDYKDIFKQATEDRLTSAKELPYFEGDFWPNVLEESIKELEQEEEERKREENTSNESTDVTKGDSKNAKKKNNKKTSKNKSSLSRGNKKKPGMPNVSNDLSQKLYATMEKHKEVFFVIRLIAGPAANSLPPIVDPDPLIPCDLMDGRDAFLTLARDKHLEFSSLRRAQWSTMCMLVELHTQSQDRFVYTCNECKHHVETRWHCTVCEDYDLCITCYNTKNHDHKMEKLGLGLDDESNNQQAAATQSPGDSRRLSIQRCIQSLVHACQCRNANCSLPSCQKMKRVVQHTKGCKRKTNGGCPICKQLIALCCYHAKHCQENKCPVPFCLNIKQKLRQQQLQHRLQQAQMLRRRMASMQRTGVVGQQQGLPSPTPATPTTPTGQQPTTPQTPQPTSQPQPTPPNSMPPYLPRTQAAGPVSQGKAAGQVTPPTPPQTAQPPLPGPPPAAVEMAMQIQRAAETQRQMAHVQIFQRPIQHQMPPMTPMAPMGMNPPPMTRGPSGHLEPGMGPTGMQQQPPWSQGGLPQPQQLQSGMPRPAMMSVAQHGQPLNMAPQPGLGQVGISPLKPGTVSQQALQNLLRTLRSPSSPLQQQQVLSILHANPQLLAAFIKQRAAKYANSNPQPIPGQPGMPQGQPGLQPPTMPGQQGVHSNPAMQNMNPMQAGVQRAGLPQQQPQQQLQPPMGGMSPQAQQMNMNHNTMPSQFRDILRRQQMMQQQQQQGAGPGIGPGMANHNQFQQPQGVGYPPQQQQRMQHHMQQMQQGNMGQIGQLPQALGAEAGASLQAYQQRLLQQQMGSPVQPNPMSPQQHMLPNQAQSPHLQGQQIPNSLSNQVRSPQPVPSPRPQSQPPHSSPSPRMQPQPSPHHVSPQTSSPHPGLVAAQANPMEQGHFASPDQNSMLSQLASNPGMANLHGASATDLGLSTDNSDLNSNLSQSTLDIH
# ASSAY: Inhibition of recombinant His-tagged HAT p300 expressed in Sf21-Baculovirus system
MEASUREMENT LABEL: pIC50
// pIC50 is dimensionless: -log10 of concentration (M)

# input What value of pIC50 has been reported for the following compound? "C=CC/C=C\C/C=C\CCCCCCCc1cccc(O)c1C(=O)O"
# output 5.30

---

Let's look at some compounds and their measured pIC50.
# EXPERIMENTAL SYSTEM: Histone acetyltransferase KAT2B (Homo sapiens, UniProt Q92831)
# Sequence (Q92831 whole entry, the tested form may be a part): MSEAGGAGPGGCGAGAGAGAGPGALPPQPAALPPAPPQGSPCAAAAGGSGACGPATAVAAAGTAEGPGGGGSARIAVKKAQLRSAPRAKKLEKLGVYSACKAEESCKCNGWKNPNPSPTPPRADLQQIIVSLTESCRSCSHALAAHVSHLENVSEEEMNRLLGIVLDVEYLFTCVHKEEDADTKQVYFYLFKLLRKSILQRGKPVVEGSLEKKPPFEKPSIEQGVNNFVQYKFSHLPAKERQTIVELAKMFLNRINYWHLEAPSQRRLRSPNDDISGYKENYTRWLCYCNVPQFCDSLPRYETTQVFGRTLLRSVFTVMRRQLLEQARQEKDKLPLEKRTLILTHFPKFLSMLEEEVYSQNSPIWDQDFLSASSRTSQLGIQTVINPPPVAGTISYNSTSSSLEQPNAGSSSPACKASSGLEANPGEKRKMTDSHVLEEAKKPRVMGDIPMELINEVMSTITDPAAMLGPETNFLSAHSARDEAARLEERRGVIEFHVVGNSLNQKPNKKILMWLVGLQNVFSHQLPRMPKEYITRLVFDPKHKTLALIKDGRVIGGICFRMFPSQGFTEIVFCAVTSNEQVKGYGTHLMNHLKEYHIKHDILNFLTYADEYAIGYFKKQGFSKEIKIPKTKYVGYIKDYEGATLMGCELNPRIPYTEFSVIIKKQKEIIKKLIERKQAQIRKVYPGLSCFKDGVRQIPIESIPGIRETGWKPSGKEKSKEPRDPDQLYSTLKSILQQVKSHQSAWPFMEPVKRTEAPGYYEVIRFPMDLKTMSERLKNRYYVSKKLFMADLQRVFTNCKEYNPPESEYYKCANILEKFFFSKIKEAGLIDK
# ASSAY: Inhibition of GST-fused recombinant HAT PCAF expressed in Escherichia coli by filter assay
Field pIC50 (float): negative decimal logarithm of the concentration in molar.

# example entries with known answers
# input Would you mind telling me what pIC50 value was observed for "Cc1csn(-c2ccccc2)c1=O" ?
# output 4.49

# input pIC50 for "COCc1csn(-c2ccccc2)c1=O" ?
# output 3.99

# input Look at this compound and give its reported pIC50. "O=c1c2cccnc2sn1-c1ccccc1"
# output 5.21

From here, focus on the item given below.
# input # get_value(readout='pIC50', item= "O=c1ccsn1-c1ccncc1" )
# output 5.82

---

# EXPERIMENTAL SYSTEM: Histone acetyltransferase p300 (Homo sapiens)
# ASSAY: Inhibition of GST-fused recombinant HAT p300 expressed in Escherichia coli by filter assay
Readings of pIC50 for the listed molecules
Friendly reminder that pIC50 comes from taking -log10 of the concentration in mol/L.

Solved entries:
# input Fill in: pIC50 of "O=c1ccsn1-c1ccncc1" is ___
# output 5.52

# input Fill blank: measured pIC50 of the molecule "O=c1ccsn1-c1ccc(N2CCOCC2)cc1" is ____.
# output 5.00

# input Returns the measured pIC50 for the input molecule. Input: "O=c1ccsn1-c1ccccn1"
# output 4.55

# input Please give the measured pIC50 for this molecule: "O=c1ccsn1-c1cccnc1"
# output 4.84

Now consider a different molecule.
# input Which pIC50 is reported for this molecule? "O=c1ccsn1-c1ccccc1"
# output 4.64

---

# EXPERIMENTAL SYSTEM: Histone acetyltransferase KAT2B (Homo sapiens)
# ASSAY: Inhibition of GST-fused recombinant HAT PCAF expressed in Escherichia coli by filter assay
MEASUREMENT LABEL: IC50 (µM)
Value expressed in µM; do not type the unit.

Reference set, count: 6
# input Notebook entry, Histone acetyltransferase KAT2B (Homo sapiens) assay: IC50 of "O=c1cc(CO)sn1-c1ccccc1" = ?
# output 109

# input Requested read-out IC50, target or system Histone acetyltransferase KAT2B (Homo sapiens), entry "O=c1ccsn1-c1ccccn1"
# output 19

# input Look up IC50 with Histone acetyltransferase KAT2B (Homo sapiens) for this compound: "O=c1ccsn1-c1cccc(Cl)c1F"
# output 5.4

# input Kindly state the measured IC50 obtained for "O=c1ccsn1-c1cccnc1" with Histone acetyltransferase KAT2B (Homo sapiens).
# output 6.5

# input Checklist item: IC50 tested on Histone acetyltransferase KAT2B (Homo sapiens), entry "Cc1c(Cl)sn(-c2ccccc2)c1=O" , value?
# output 19.8

# input Query for Histone acetyltransferase KAT2B (Homo sapiens): what IC50 does the record show for "O=c1ccsn1-c1ccc(N2CCOCC2)cc1" ?
# output 7.5

Next:
# input What measured IC50 is associated with "[N-]=[N+]=NCc1csn(-c2ccccc2)c1=O" on Histone acetyltransferase KAT2B (Homo sapiens)?
# output 42.7
